Source: patent US20220177587A1

target: CD28 (Homo sapiens, UniProt P10747); test: Flow binding to Jurkat/IL2 reporter cells (CD28); set-up: host or cells: Jurkat cells expressing an IL-2-luciferase reporter; conditions: Table E11; Jurkats (CD28); 33.3 nM
Rule: measured CD28 MFI at 33.3 nM below 20 gets met; anything equal to or greater than 20 gets not met.

**Q:** Is the reported CD28 MFI at 33.3 nM for E35D/M47V/V68M/L85M (protein, UniProt P33681 35-288, looked up, variant E35D M47V V68M L85M) T-lymphocyte activation …: VIHVTKEVKEVATLSCGHNVSVEELAQTRIYWQKDKKMVLTMMSGDVNIWPEYKNRTIFDITNNLSIMILALRPSDEGTYECVVMKYEKDAFKREHLAEVTLSVKADFPTPSISDFEIPTSNIRRIICSTSGGFPEPHLSWLENGEELNAINTTVSQDPETELYAVSSKLDFNMTTNHSFMCLIKYGHLRVNQTFNWNTTKQEHFPDNLLPSWAITLISVNGIFVICCLTYCFAPRCRERRRNERLRRESVRPV strictly below 20?
**A:** not met

**Q:** Would you kindly repeat that for H18Y/E35D/M47L/V68M/E95V/L97Q (protein, UniProt P33681 35-288, looked up, variant H18Y E35D M47L V68M E95V L97Q) T-lymphocyte activation …: VIHVTKEVKEVATLSCGYNVSVEELAQTRIYWQKDKKMVLTMMSGDLNIWPEYKNRTIFDITNNLSIMILALRPSDEGTYECVVLKYEKDAFKRVHQAEVTLSVKADFPTPSISDFEIPTSNIRRIICSTSGGFPEPHLSWLENGEELNAINTTVSQDPETELYAVSSKLDFNMTTNHSFMCLIKYGHLRVNQTFNWNTTKQEHFPDNLLPSWAITLISVNGIFVICCLTYCFAPRCRERRRNERLRRESVRPV ?
**A:** met

**Q:** Input T13R/Q33R/E35D/M38I/M47L/V68M/L85M (protein, UniProt P33681 35-288, looked up, variant T13R Q33R E35D M38I M47L V68M L85M) T-lymphocyte activation …: VIHVTKEVKEVARLSCGHNVSVEELAQTRIYWRKDKKIVLTMMSGDLNIWPEYKNRTIFDITNNLSIMILALRPSDEGTYECVVMKYEKDAFKREHLAEVTLSVKADFPTPSISDFEIPTSNIRRIICSTSGGFPEPHLSWLENGEELNAINTTVSQDPETELYAVSSKLDFNMTTNHSFMCLIKYGHLRVNQTFNWNTTKQEHFPDNLLPSWAITLISVNGIFVICCLTYCFAPRCRERRRNERLRRESVRPV
**A:** met

**Q:** Cool, now Q33R/E35D/M38I/M47L/V68M (protein, UniProt P33681 35-288, looked up, variant Q33R E35D M38I M47L V68M) T-lymphocyte activation …: VIHVTKEVKEVATLSCGHNVSVEELAQTRIYWRKDKKIVLTMMSGDLNIWPEYKNRTIFDITNNLSIMILALRPSDEGTYECVVLKYEKDAFKREHLAEVTLSVKADFPTPSISDFEIPTSNIRRIICSTSGGFPEPHLSWLENGEELNAINTTVSQDPETELYAVSSKLDFNMTTNHSFMCLIKYGHLRVNQTFNWNTTKQEHFPDNLLPSWAITLISVNGIFVICCLTYCFAPRCRERRRNERLRRESVRPV
**A:** met

**Q:** Try the molecule H18Y/E35D/M38I/M47L/V68M/L85M (protein, UniProt P33681 35-288, looked up, variant H18Y E35D M38I M47L V68M L85M) T-lymphocyte activation …: VIHVTKEVKEVATLSCGYNVSVEELAQTRIYWQKDKKIVLTMMSGDLNIWPEYKNRTIFDITNNLSIMILALRPSDEGTYECVVMKYEKDAFKREHLAEVTLSVKADFPTPSISDFEIPTSNIRRIICSTSGGFPEPHLSWLENGEELNAINTTVSQDPETELYAVSSKLDFNMTTNHSFMCLIKYGHLRVNQTFNWNTTKQEHFPDNLLPSWAITLISVNGIFVICCLTYCFAPRCRERRRNERLRRESVRPV
**A:** met

**Q:** Next record, please: E35D/M47V/N48KN68M/A71G/L85M (protein) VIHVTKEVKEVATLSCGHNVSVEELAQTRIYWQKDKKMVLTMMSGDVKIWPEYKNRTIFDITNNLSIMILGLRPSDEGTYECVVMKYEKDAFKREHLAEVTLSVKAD
**A:** not met

**Q:** Queued: T13R/Q33R/E35D/M47L/V68M/L85M (protein, CD80 v382 ECD) VIHVTKEVKEVARLSCGHNVSVEELAQTRIYWRKDKKMVLTMMSGDLNIWPEYKNRTIFDITNNLSIMILALRPSDEGTYECVVMKYEKDAFKREHLAEVTLSVKADFPTPSISDFETPTSNIRRIICSTSGGFPEPHLSWLENGEELNAINTTVSQDPETELYAVSSKLDFNMTTNHSFMCLIKYGHLRVNQTFNWNTTKQEHFPDN
**A:** not met

**Q:** And for E35D/M47L/V68M/E95V/L97Q (protein, UniProt P33681 35-288, looked up, variant E35D M47L V68M E95V L97Q, Fc fusion) T-lymphocyte activation …: VIHVTKEVKEVATLSCGHNVSVEELAQTRIYWQKDKKMVLTMMSGDLNIWPEYKNRTIFDITNNLSIMILALRPSDEGTYECVVLKYEKDAFKRVHQAEVTLSVKADFPTPSISDFEIPTSNIRRIICSTSGGFPEPHLSWLENGEELNAINTTVSQDPETELYAVSSKLDFNMTTNHSFMCLIKYGHLRVNQTFNWNTTKQEHFPDNLLPSWAITLISVNGIFVICCLTYCFAPRCRERRRNERLRRESVRPV ?
**A:** met

**Q:** Then what about the molecule T13R/Q33L/E35D/M47V/T62S/V68M/L85M (protein, UniProt P33681 35-288, looked up, variant T13R Q33L E35D M47V T62S V68M L85M) T-lymphocyte activation …: VIHVTKEVKEVARLSCGHNVSVEELAQTRIYWLKDKKMVLTMMSGDVNIWPEYKNRTIFDISNNLSIMILALRPSDEGTYECVVMKYEKDAFKREHLAEVTLSVKADFPTPSISDFEIPTSNIRRIICSTSGGFPEPHLSWLENGEELNAINTTVSQDPETELYAVSSKLDFNMTTNHSFMCLIKYGHLRVNQTFNWNTTKQEHFPDNLLPSWAITLISVNGIFVICCLTYCFAPRCRERRRNERLRRESVRPV ?
**A:** met
